Method: Cmax in Swiss albino mouse at 50 mg/kg, ip measured after 8 hrs
Assay type: ADME, organism-based
Design: dose 50 mg/kg, route intraperitoneal
Experimental Conditions: in vivo
Measurement Name: Cmax (nM)
Please give a number only; it is taken to be in nM.

COc1cc2ncnc(Nc3ccc(F)c(Cl)c3)c2cc1OCCCN1CCN(CCC(=O)NCCCCCCCCOc2cccc3c2C(=O)N(C2CCC(=O)NC2=O)C3=O)CC1 (configuration not stated)	500

Next molecule, please.
**Q:** Sample `COc1cc2ncnc(Nc3ccc(F)c(Cl)c3)c2cc1OCCCN1CCN(C(=O)CCCCCCCCCC(=O)N[C@H](C(=O)N2C[C@H](O)C[C@H]2C(=O)NCc2ccc(-c3scnc3C)cc2)C(C)(C)C)CC1` — what was its Cmax?
**A:** 5000

* * *

Method: Cmax in Swiss albino mouse at 50 mg/kg, ip measured after 24 hrs
Type: ADME, organism-based
Design: dose 50 mg/kg, route intraperitoneal
Experimental Conditions: in vivo
Measurement Name: Cmax

**Q:** Sample `COc1cc2ncnc(Nc3ccc(F)c(Cl)c3)c2cc1OCCCN1CCN(C(=O)CCCCCCCCCC(=O)N[C@H](C(=O)N2C[C@H](O)C[C@H]2C(=O)NCc2ccc(-c3scnc3C)cc2)C(C)(C)C)CC1` — what was its Cmax?
**A:** 1000 nM

* * *

Assay Target: Epidermal growth factor receptor (Homo sapiens, UniProt P00533, L858R)
Sequence (P00533 25-1210 L858R limits assumed): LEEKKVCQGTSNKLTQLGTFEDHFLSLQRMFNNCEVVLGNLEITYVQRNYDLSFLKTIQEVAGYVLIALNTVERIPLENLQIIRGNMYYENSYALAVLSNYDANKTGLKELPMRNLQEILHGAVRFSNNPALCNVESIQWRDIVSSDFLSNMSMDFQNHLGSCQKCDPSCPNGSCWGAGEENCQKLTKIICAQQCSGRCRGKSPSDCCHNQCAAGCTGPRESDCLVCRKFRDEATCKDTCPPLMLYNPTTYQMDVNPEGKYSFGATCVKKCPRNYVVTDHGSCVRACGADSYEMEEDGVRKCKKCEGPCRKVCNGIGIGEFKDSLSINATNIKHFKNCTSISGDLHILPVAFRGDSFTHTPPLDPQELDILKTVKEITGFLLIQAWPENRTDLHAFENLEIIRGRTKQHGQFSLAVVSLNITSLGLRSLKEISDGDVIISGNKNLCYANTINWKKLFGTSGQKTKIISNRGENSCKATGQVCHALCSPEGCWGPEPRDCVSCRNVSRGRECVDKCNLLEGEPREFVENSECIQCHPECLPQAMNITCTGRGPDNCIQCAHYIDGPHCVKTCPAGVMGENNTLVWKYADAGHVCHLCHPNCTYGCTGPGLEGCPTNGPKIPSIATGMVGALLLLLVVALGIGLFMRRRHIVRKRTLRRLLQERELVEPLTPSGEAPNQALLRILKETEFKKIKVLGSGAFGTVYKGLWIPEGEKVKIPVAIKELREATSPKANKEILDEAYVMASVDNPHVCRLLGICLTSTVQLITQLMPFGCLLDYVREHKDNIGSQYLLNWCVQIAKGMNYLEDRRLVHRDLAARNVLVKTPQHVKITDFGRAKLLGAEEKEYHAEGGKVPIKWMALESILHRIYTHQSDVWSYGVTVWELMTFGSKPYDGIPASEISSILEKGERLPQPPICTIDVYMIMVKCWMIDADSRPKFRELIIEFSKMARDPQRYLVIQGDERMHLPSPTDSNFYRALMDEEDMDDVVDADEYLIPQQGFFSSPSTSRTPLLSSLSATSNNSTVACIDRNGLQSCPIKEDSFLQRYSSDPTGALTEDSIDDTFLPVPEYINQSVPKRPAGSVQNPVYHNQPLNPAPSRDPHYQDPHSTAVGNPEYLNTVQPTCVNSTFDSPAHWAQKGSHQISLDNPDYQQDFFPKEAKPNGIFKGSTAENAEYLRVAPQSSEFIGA
Measurement Name: pKd
Bear in mind: pKd is minus log10 of a mol/L concentration; give just that figure.

Examples with their reported pKd follow.
COc1cc2ncnc(Nc3ccc(F)c(Cl)c3)c2cc1OCCCN1CCN(CCC(=O)NCCCCCCCCOc2cccc3c2C(=O)N(C2CCC(=O)N(C)C2=O)C3=O)CC1 (stereo not drawn)	8.37
COc1cc2ncnc(Nc3ccc(F)c(Cl)c3)c2cc1OCCCN1CCN(C(=O)CCCCCCCCCC(=O)N[C@H](C(=O)N2C[C@H](O)C[C@H]2C(=O)NCc2ccc(-c3scnc3C)cc2)C(C)(C)C)CC1	7.92

Next molecule, please.
**Q:** Sample `COc1cc2ncnc(Nc3ccc(F)c(Cl)c3)c2cc1OCCCN1CCN(C(=O)CCCCCCCCCC(=O)N[C@H](C(=O)N2C[C@@H](O)C[C@@H]2C(=O)NCc2ccc(-c3scnc3C)cc2)C(C)(C)C)CC1` — what was its pKd?
**A:** 8.05

* * *

Let's go through some pKd measurements on Epidermal growth factor receptor (Homo sapiens) together.
Bear in mind: pKd is minus log10 of a mol/L concentration; give just that figure.

Examples with their reported pKd follow.
COc1cc2ncnc(Nc3ccc(F)c(Cl)c3)c2cc1OCCCN1CCN(C(=O)CCCCCCCCCC(=O)N[C@H](C(=O)N2C[C@@H](O)C[C@@H]2C(=O)NCc2ccc(-c3scnc3C)cc2)C(C)(C)C)CC1	8.07
COc1cc2ncnc(Nc3ccc(F)c(Cl)c3)c2cc1OCCCN1CCN(CCC(=O)NCCCCCCCCOc2cccc3c2C(=O)N(C2CCC(=O)N(C)C2=O)C3=O)CC1 (stereo not drawn)	8.52

Next molecule, please.
**Q:** Sample `COc1cc2ncnc(Nc3ccc(F)c(Cl)c3)c2cc1OCCCN1CCN(C(=O)CCCCCCCCCC(=O)N[C@H](C(=O)N2C[C@H](O)C[C@H]2C(=O)NCc2ccc(-c3scnc3C)cc2)C(C)(C)C)CC1` — what was its pKd?
**A:** 7.96
